// reported TGI for each item listed
System: ACHN renal
Assay: NCI tumour cell line growth inhibition, 48 h
Just the number in µM, nothing appended.

Worked cases, TGI given:
molecule	assay-metric	unit-text	observed-value
COC(=O)c1c2c(c[n+]([O-])c1C)C(=O)C=C(NCc1ccccc1)C2=O	TGI	µM	0.579
C=C1C(=O)OC2C1CC[C@H](C)C1(O)C(O)CC(=O)[C@@]21C (stereo not given in full)	TGI	µM	43.4

// switching to the query molecule
Would you kindly share the measured TGI for COc1cc(/C=C/C(=O)c2cc(OC)c(OC)c(OC)c2)ccc1Oc1nc2c(c(=O)n(C)c(=O)n2C)n1C ? 8.06
